# tested target: T1, Macaca fascicularis IL2Rγ extracellular domain expressed with a C-terminal myc-myc-hexahistidine tag (Macaca fascicularis)
# T1 construct: whole entry is the tagged construct; also called mfIL-2Rg-MMH
# T1 chain: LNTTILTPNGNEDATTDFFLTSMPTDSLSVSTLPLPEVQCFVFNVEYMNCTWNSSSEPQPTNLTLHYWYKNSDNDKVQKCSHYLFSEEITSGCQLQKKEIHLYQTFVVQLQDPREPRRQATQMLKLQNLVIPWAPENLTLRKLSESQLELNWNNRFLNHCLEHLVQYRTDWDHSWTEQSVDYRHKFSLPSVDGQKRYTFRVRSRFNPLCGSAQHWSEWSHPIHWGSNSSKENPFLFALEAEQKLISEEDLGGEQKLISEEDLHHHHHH
# experiment summary: SPR Biacore 4000, anti-hFc-captured mAb, 37 C
# Description: Equilibrium dissociation constants (KD values) for IL-2Rγ binding to purified anti-IL2Rγ monoclonal antibodies were determined using a Biacore 4000 instrument equipped with a real-time surface plasmon resonance biosensor. […] The dissociation of monoclonal antibody bound IL2Rγ reagents were monitored for 8-10 minutes in HBS-ET running buffer. […] Binding dissociation equilibrium constants (KD) and dissociative half-lives (t_{1/2}) were calculated from the kinetic rate constants as: […]

# binder, Kd [nM]
measured = [
    ("H4H13541P (antibody, human IgG4 S228P, kappa, V domains shown, fully human anti-IL2Rgamma mAb, human IgG4 Fc) VH: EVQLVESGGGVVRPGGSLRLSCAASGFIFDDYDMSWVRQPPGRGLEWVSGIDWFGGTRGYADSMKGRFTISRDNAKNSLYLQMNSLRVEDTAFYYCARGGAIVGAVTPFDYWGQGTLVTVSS VL: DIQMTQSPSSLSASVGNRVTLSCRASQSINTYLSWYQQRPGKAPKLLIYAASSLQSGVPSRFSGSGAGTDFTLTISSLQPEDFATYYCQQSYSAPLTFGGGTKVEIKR", 7.1),
    ("H4H12858P (antibody, human IgG4 S228P, kappa, V domains shown, fully human anti-IL2Rgamma mAb, human IgG4 Fc; also called REGN9433) VH: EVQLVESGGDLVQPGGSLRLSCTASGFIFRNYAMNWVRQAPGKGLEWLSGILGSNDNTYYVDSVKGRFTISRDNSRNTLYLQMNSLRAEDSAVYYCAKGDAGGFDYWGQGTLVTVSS VL: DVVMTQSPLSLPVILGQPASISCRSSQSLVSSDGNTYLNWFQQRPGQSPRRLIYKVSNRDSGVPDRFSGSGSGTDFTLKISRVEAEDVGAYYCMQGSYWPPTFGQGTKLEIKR", 4.77),
    ("H4H12863P (antibody, human IgG4 S228P, kappa, V domains shown, fully human anti-IL2Rgamma mAb, human IgG4 Fc) VH: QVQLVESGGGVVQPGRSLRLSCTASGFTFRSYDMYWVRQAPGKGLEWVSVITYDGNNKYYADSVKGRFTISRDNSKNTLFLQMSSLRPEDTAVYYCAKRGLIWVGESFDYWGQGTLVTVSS VL: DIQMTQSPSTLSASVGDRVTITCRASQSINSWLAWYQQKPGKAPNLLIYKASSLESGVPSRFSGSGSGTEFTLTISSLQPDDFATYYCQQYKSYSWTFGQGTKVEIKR", 5.51),
]
